Origin of measurements: patent US20260242478A1

# MEASURED_TARGET: Anti-CD28 Fab (SEQ ID NOs: 696, 697)
# Sequence (VH, as listed by the source, chain 1 of 2): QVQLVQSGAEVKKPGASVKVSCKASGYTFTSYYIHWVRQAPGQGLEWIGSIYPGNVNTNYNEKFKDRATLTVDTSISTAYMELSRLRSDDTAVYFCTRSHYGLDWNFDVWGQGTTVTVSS
# Sequence (VL, as listed by the source, chain 2 of 2): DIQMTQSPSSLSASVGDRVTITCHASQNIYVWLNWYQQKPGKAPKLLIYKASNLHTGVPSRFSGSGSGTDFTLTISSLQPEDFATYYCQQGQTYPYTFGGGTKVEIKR
# ASSAY_PROCEDURE: phage binding ELISA; biotinylated anti-CD28 Fab on neutravidin plate, clonal phage supernatant, anti-M13 HRP detection
For each of the binders below, state its Anti-CD28 Fab signal (phage binding ELISA).
Output: the number by itself.

## Task Would you kindly share the measured Anti-CD28 Fab signal (phage binding ELISA) for YCDGHSWQYISKCL (Peptide-87 library clone, tested as clonal phage supernatant with the peptide fused to the pIII filament of the bacteriophage) [Phage-905] ?
## Result 1.67

## Task Would you kindly share the measured Anti-CD28 Fab signal (phage binding ELISA) for YCEGHLSQYMSKCL (Peptide-87 library clone, tested as clonal phage supernatant with the peptide fused to the pIII filament of the bacteriophage) [Phage-916] ?
## Result 1.66

## Task Would you kindly share the measured Anti-CD28 Fab signal (phage binding ELISA) for YCEGHAQEYMNKCL (Peptide-87 library clone, tested as clonal phage supernatant with the peptide fused to the pIII filament of the bacteriophage) [Phage-910] ?
## Result 1.67

## Task Would you kindly share the measured Anti-CD28 Fab signal (phage binding ELISA) for YCDGHAPQWMAKCL (Peptide-87 library clone, tested as clonal phage supernatant with the peptide fused to the pIII filament of the bacteriophage) [Phage-907] ?
## Result 1.67

## Task Would you kindly share the measured Anti-CD28 Fab signal (phage binding ELISA) for YCEGHLPQYMRPCL (Peptide-87 library clone, tested as clonal phage supernatant with the peptide fused to the pIII filament of the bacteriophage) [Phage-915] ?
## Result 1.66
